Assign Monkey NPR1 Amax (% of ANP) to each entry below.
Biological target: monkey NPR1 (Macaca fascicularis)
Experiment: Cellular cGMP production assay, monkey NPR1 expressing CHO-K1 cells (CisBio HTRF)
Type: cell-based
Settings: maximum cGMP production as percentage of the maximum cGMP produced with ANP, monkey NPR1 CHO-K1 cells

// query # get_value(readout= Monkey NPR1 Amax (% of ANP), system= monkey NPR1 (Macaca fascicularis)) for CC[C@H]([C@H]1CC[C@H](C(=O)O)CC1)N(C)c1nc2c(c(N[C@@H](CN3C4CCCC3CC4)c3cnn(C)c3C)n1)C[C@H](c1cccc(F)c1)CC2
// result 98.785 % of ANP

// query Next: CC[C@H]([C@H]1CC[C@H](CC(=O)O)CC1)N(C)c1nc2c(c(N[C@@H](CN3CCC[C@H](C)C3)c3cnn(C)c3)n1)C[C@H](c1ccccc1)CC2
// result 98.233 % of ANP

// query Next: CC[C@H]([C@H]1CC[C@H](C(=O)O)CC1)N(C)c1nc2c(c(N[C@@H](CN3C4CCCC3CC4)c3cc(C)n(C)n3)n1)C[C@H](c1cccc(F)c1)CC2
// result 94.699 % of ANP

// query Next: CC[C@H]([C@H]1CC[C@H](C(=O)O)CC1)N(C)c1nc2c(c(N[C@@H](CN3C4CC5CC(C4)CC3C5)c3cnn(C)c3)n1)C[C@H](c1ccccc1)CC2
// result 105.533 % of ANP

// query Next: CC[C@@H](Nc1nc2c(c(N[C@@H](CN3CCCC4(CCC4)C3)c3cnn(CC)c3)n1)C[C@H](c1ccccc1)CC2)[C@H]1CC[C@H](C(=O)O)CC1
// result 102.477 % of ANP

// query Next: CC[C@@H](Nc1nc2c(c(N[C@@H](CN3CCC[C@H](C)C3)c3scnc3C)n1)C[C@H](c1ccccc1)CC2)[C@H]1CC[C@H](C(=O)O)CC1
// result 99.527 % of ANP

// query Next: CC[C@H]([C@H]1CC[C@H](C(=O)O)CC1)N(C)c1nc2c(c(N[C@@H](CN3CCC[C@H](C)C3)c3ccc(=O)n(C)c3)n1)C[C@H](c1cccc(F)c1)CC2
// result 101.261 % of ANP

// query Next: CC[C@@H](Nc1nc2c(c(N[C@@H](CN3C4CC5CC(C4)CC3C5)c3cnn(C)c3)n1)C[C@H](c1ccccc1)CC2)[C@H]1CC[C@H](C(=O)O)CC1
// result 121.791 % of ANP

// query Next: CC[C@@H](Nc1nc2c(c(N[C@@H](CN3CCCCCC3)c3cnn(C)c3)n1)C[C@H](c1cccc(F)c1)CC2)[C@H]1CC[C@H](C(=O)O)CC1
// result 107.571 % of ANP

// query Next: CC[C@H]([C@H]1CC[C@H](C(=O)O)CC1)N(C)c1nc2c(c(N[C@@H](CN3CCCCC3)c3ccc(=O)n(CC)c3)n1)C[C@H](c1ccccc1)CC2
// result 102.851 % of ANP

// query Next: CC[C@@H](Nc1nc2c(c(N[C@@H](CNC3CCOCC3)c3ccccc3)n1)C[C@H](c1ccccc1)CC2)[C@H]1CC[C@H](C(=O)O)CC1
// result 96.913 % of ANP

// query Next: CC[C@@H](Nc1nc2c(c(N[C@@H](CN3CCCCCC3)c3cnn(CC)c3)n1)C[C@H](c1ccccc1)CC2)[C@H]1CC[C@H](C(=O)O)CC1
// result 105.567 % of ANP

// query Next: CC[C@@H](Nc1nc2c(c(N[C@@H](CN3C4CCCC3CC(O)C4)c3cnn(CC)c3)n1)C[C@H](c1cccc(F)c1)CC2)[C@H]1CC[C@H](C(=O)O)CC1 (stereo partly shown)
// result 109.499 % of ANP

// query Next: CC[C@@H](N(C)c1nc2c(c(N[C@@H](CN3C4CCCC3CCC4)c3cnn(C)c3)n1)C[C@](C)(c1ccccc1)CC2)C12CC(C(=O)O)(C1)C2
// result 102.654 % of ANP

// query Next: CC[C@@H](N(C)c1nc2c(c(N[C@@H](CN3C4CCCC3CC4)c3cnn(C)c3)n1)C[C@](C)(c1ccccc1)CC2)C12CC(C(=O)O)(C1)C2
// result 105.314 % of ANP

// query Next: CC[C@H]([C@H]1CC[C@H](C(=O)O)CC1)N(C)c1nc2c(c(N[C@@H](CN3CCCCC3)c3cnn(CC(F)(F)F)c3)n1)C[C@H](c1ccccc1)CC2
// result 98.847 % of ANP

// query Next: CC[C@@H](Nc1nc2c(c(N[C@@H](CN3C4CCCC3CC4)c3cnn(C)c3)n1)C[C@H](c1ccccc1)CC2)[C@H]1CC[C@H](C(=O)O)CC1
// result 106.189 % of ANP

// query Next: CC[C@H]([C@H]1CC[C@H](C(=O)O)CC1)N(C)c1nc2c(c(N[C@@H](CN3CCCCC3)c3cnn(C4CC4)c3)n1)C[C@H](c1ccccc1)CC2
// result 96.148 % of ANP

// query Next: CC[C@H]([C@H]1CC[C@H](C(=O)O)CC1)N(C)c1nc2c(c(N[C@@H](CN3CCC[C@H](O)C3)c3cnn(CC)c3)n1)C[C@H](c1cccc(F)c1)CC2
// result 102.145 % of ANP

// query Next: CC[C@@H](Nc1nc2c(c(N[C@@H](CN3C4CCCC3CCC4)c3cnn(C)c3)n1)C[C@H](c1ccccc1)CC2)[C@H]1CC[C@H](C(=O)O)CC1
// result 104.401 % of ANP

// query Next: CC[C@@H](Nc1nc2c(c(N[C@@H](CN3C4CCCC3CC4)c3ccccc3)n1)C[C@H](c1ccccc1)CC2)[C@H]1CC[C@H](C(=O)O)CC1
// result 106.033 % of ANP

// query Next: CC[C@H]([C@H]1CC[C@H](C(=O)O)CC1)N(C)c1nc2c(c(N[C@@H](CN3CCC[C@H](C)C3)c3cnn(C)c3)n1)C[C@@H](c1ccccc1)CC2
// result 101.476 % of ANP

====

Biological target: monkey NPR1 (Macaca fascicularis, UniProt A0A7N9DBT9)
Sequence (A0A7N9DBT9 entry or part of it): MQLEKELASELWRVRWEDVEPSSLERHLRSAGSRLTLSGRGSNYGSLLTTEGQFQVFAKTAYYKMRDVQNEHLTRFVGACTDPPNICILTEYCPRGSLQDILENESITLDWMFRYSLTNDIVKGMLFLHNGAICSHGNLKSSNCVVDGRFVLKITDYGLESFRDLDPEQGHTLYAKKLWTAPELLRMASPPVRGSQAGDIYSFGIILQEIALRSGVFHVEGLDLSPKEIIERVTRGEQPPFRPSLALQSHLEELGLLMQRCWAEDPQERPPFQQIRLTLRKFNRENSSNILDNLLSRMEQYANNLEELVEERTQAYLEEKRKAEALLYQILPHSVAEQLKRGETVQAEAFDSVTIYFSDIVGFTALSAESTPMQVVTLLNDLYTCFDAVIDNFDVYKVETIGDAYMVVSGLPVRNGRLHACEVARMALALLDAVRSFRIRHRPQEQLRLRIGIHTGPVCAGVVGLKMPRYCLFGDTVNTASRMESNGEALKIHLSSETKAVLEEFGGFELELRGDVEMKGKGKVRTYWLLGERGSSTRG
Test: Cellular cGMP production assay, monkey NPR1 expressing CHO-K1 cells (CisBio HTRF)
Type: cell-based
# if measured AC50 < 100 nM: T  # else: F

// query Find out if reported AC50 for CC[C@@H](N(C)c1nc2c(c(N[C@@H](CN3C4CCCC3CCC4)c3cnn(C)c3)n1)C[C@H](c1ccc(F)cc1)CC2)C12CC(C(=O)O)(C1)C2 [Compound 11] is less than 100 nM
// result T

// query Next: CC[C@H]([C@H]1CC[C@H](C(=O)O)CC1)N(C)c1nc2c(c(N[C@@H](CN3C4CCCC3CC4)c3cnn(C)c3)n1)C[C@H](c1ccccc1F)CC2 [Compound 62]
// result F

// query Next: CC[C@@H](Nc1nc2c(c(N[C@@H](CN3C4CCCC3CC4)c3csc(C)n3)n1)C[C@H](c1cccc(F)c1)CC2)[C@H]1CC[C@H](C(=O)O)CC1 [Compound 127]
// result F

// query Next: CC[C@@H](N(C)c1nc2c(c(N[C@@H](CN3C4CCCC3CCC4)c3ccnn3C)n1)C[C@H](c1ccccc1)CC2)C12CC(C(=O)O)(C1)C2 [Compound 172]
// result F

// query Next: CC[C@@H](Nc1nc2c(c(N[C@@H](CN3C4CCCC3CC(O)C4)c3cnn(CC)c3)n1)C[C@H](c1cccc(F)c1)CC2)[C@H]1CC[C@H](C(=O)O)CC1 (some centres unmarked) [Compound 117]
// result F

====

Molecular target: human NPR1 (Homo sapiens, UniProt P16066)
Construct: host or cells: CHO-K1
Sequence (P16066 33-1061): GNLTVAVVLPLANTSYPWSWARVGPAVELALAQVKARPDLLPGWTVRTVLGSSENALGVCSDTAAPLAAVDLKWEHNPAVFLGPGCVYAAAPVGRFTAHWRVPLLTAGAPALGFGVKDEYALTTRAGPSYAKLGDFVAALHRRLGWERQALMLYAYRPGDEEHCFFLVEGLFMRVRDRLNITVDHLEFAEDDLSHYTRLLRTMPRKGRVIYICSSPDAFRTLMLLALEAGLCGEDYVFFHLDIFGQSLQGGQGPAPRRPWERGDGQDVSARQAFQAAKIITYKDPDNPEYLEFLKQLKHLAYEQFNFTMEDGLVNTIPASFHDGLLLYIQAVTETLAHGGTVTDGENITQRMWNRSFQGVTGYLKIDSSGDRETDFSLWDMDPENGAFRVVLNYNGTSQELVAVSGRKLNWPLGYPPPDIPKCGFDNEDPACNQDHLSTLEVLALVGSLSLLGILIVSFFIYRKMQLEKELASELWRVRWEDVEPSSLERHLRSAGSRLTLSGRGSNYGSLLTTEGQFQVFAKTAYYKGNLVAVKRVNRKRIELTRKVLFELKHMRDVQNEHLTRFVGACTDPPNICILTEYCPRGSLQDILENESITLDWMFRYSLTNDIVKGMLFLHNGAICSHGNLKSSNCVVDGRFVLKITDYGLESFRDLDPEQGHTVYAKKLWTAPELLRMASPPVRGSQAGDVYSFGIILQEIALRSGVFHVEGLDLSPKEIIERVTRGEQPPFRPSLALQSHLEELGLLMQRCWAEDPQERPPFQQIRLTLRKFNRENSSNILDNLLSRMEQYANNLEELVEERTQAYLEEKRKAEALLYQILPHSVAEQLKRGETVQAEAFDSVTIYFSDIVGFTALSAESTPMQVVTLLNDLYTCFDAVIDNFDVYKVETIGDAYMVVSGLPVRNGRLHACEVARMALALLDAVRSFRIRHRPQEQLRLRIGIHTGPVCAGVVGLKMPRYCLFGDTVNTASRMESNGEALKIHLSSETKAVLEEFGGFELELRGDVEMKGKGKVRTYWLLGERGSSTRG
Test: Cellular cGMP production assay, human NPR1 expressing CHO-K1 cells (CisBio HTRF)
Format: cell-based
Settings: cGMP production, 30 min at 37° C., 12-point dose-response from 30 μM
Method: Cellular cGMP is a major second messenger that mediates cell activities and is synthesized by activated NPR1 triggered by binding of the natural ligand ANP. […] The assay was performed according to manufacturer's instructions with minor deviations. […] The readout was performed using an Envision plate reader (PerkinElmer) with an excitation wavelength of 317 nm and an emission wavelength of 665 nm. cGMP concentration (Delta F [° %]) was calculated according to the following formulae: […]
Assign AC50 to each entry below.
API: value field is a number in nM; no unit string.

// query Entry CC[C@@H](Nc1nc2c(c(N[C@@H](CN3C[C@H](C)C[C@H](C)C3)c3cnn(C)c3)n1)C[C@H](c1ccccc1)CC2)[C@H]1CC[C@H](C(=O)O)CC1 : reported AC50 = ?
// result 207

// query Next: CC[C@H]([C@H]1CC[C@H](C(=O)O)CC1)N(C)c1nc2c(c(N[C@@H](CN3CCCCC3)c3cnn(C4CC4)c3)n1)C[C@H](c1ccccc1)CC2
// result 338

// query Next: CC[C@@H](N(C)c1nc2c(c(N[C@@H](CN3C4CCCC3CCC4)c3cnn(C)c3)n1)C[C@H](c1ccccc1F)CC2)C12CC(C(=O)O)(C1)C2
// result 168

// query Next: CC[C@H]([C@H]1CC[C@H](C(=O)O)CC1)N(C)c1nc2c(c(N[C@@H](CN3C4CCC3CC4)c3cnn(C)c3)n1)C[C@](C)(c1ccccc1)CC2
// result 234

// query Next: CC[C@@H](N(C)c1nc2c(c(N[C@@H](CN3CCC[C@H](CF)C3)c3cnn(C)c3)n1)C[C@](C)(c1ccccc1)CC2)C12CC(C(=O)O)(C1)C2
// result 94
